Provenance of the data: a melting point compilation (Tetko et al.; mined from patent text by program, amines drawn as free bases though some values may be those of a salt)

outcomeMeasure: melting point

Ask: Using the record for `COC(=O)CCc1c[nH]cn1` , report its melting point.
Result: 105 to 108 °C

Ask: Same again, this time with `CCN(c1ccc(Cl)cc1)c1cc(NC)nc(C)n1`
Result: 133 to 136 °C

Ask: Continue with CCCCCCCCCCN1C(=O)C2C3CCC(O3)C2C1=O (centres undefined)
Result: 30 to 31 °C

Ask: Similarly, `O=C(c1cccs1)c1cnn2c(-c3ccc(F)c(N(C(=O)c4ccccc4Cl)C(=O)c4ccccc4Cl)c3)ccnc12` ?
Result: 150 to 151 °C

Ask: Repeat with `NC(=NCC(F)(F)F)Nc1ccnc(OCCn2ccnc2)n1`
Result: 149 to 150 °C

Ask: Same for `C[Si](C)(C)C#Cc1cnn(-c2ccnc3cc(Cl)ccc23)c1`
Result: 106 to 112 °C

Ask: Repeat with `CSc1sc(-c2ccn(C)n2)c2c1C(=O)C(=CO)C(C)(C)C2`
Result: 145 to 148 °C

Ask: Moving on to `COC(=O)C[C@@H](SCc1ccccc1)C(N)=O`
Result: 146 to 149 °C

Ask: Also, `COC(=O)c1cccc(F)c1OC` please.
Result: 99 to 101 °C

Ask: Now consider `O=[N+]([O-])c1cc[nH]c1-c1ccccc1` and answer again.
Result: 190 to 192 °C

Ask: Next: CC1=C(C(=O)OC(C)C)C(c2cccc([N+](=O)[O-])c2)N(C(=O)OCc2ccccc2)C(=O)N1 (centres undefined)
Result: 158 to 159 °C

Ask: Another molecule to check: `CN(C)CCOc1cccc2cc(C(=O)Nc3ccccc3N)oc12`
Result: 108 to 118 °C

Ask: `CC(C)(C)C(=O)Nc1cc(Cl)ccn1` , same question.
Result: 86 to 87 °C

Ask: Please give the result for `CCCSc1c2c(=O)n(C)c(=O)n(CC(C)C)c2nn1Cc1cccc2ccccc12` too.
Result: 105 °C

Ask: How about this molecule: `Cc1cc(C)c2c(n1)Nc1cc(C)c(C)cc1NC2=O`
Result: 264 to 268 °C

Ask: What would you report for `COc1ccc(C(F)(F)F)cc1NC(=O)Nc1ccc(-c2c(C(N)=O)[nH]c3ccccc23)cc1` ?
Result: 178 to 180 °C

Ask: Now try `COc1ccc(-c2c(C(N)=O)c3n(c2Cl)CCN(C(=O)OC(C)(C)C)C3)cc1` .
Result: 188 °C

Ask: Also check `COc1cccc(C(=O)N[C@H]2C[C@@H](c3cc(NC(=O)Cc4cccc5ccccc45)n[nH]3)C2)c1`
Result: 125 °C

Ask: Query `COc1nc(C)cnc1NS(=O)(=O)c1cccnc1-c1ccc(OCCO)cc1` next
Result: 180 to 182 °C

Ask: // repeat for `CCCCc1noc(-c2ncn3c2[C@@H]2CCCN2C(=O)c2c(Cl)cccc2-3)n1` and report
Result: 181 to 182 °C

Ask: Please do the same for COc1nc(NC(COC(=O)NC(C)C)C(C)(C)C)nc(OC)c1[N+](=O)[O-] (centres undefined) as well.
Result: 110 °C

Ask: Same for `Cc1ccc(-n2nc(C)c(NC(N)=S)c2C)cc1`
Result: 240 to 241 °C

Ask: Item: `Cc1ccc(Cn2ccc(OCc3ccccc3)c(Br)c2=O)cc1`
Result: 150 to 151 °C

Ask: Thanks! And `CCN(CC)C(=O)c1cc2ccccc2c(-c2cccc(Cl)c2)n1` ?
Result: 116 °C

Ask: Field entry: `CN1CCC[C@@H]1Cc1c[nH]c2ccc(CS(=O)(=O)NC(C)(C)C)cc12`
Result: 73 to 75 °C

Ask: Input Nc1nc(-c2ccccc2)nc2c1ncc(=O)n2C1CC(O)C(CO)O1 (centres undefined)
Result: 169 to 172 °C

Ask: Next molecule: `Cn1cccc1CCNC(=O)Cn1c(-c2ccc(Cl)cc2)nc2cccnc21`
Result: 171 to 172 °C

Ask: Note, next up: `O=C(NC[C@H]1CN(c2ccc(N3CCN(C(=O)OCc4ccccc4)CC3)c(F)c2)C(=O)O1)C(F)F`
Result: 147 °C

Ask: Record: N=C(N)NCCc1ccc(OCCC2Oc3ccccc3N(Cc3cccc4ccccc34)C2=O)cc1 (centres undefined)
Result: 75 to 80 °C
